Kd values, listed per item
Biological target: T1, recombinant DLL3 ectodomain (rhDLL3-Fc) (human, UniProt Q9NYJ7 27-492, biotinylated (NHS-LC-LC-biotin) in the BLI and SPR assays)
T1 construct: also called rDLL3-Fc; recombinant human DLL3 (rDLL3); not shown: Fc part
T1 sequence: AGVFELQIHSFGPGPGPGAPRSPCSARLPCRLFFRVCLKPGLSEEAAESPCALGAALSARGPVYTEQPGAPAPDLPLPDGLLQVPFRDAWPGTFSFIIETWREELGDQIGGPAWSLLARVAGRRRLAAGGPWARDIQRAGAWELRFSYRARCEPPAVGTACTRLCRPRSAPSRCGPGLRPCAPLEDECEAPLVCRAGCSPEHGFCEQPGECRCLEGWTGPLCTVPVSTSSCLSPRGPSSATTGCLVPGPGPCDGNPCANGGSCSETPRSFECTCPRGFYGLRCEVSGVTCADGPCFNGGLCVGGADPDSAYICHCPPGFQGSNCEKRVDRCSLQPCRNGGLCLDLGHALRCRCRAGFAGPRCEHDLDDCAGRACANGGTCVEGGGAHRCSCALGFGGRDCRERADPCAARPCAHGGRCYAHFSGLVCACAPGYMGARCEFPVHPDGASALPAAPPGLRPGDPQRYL
Assay: BLI (Octet), biotinylated rhDLL3-Fc on streptavidin sensors
Bridge positions count the residues as written; N and C are the ends. Ends that are not written are not given here.
Entry format: amount then unit.

See these solved cases before continuing.
>  <binder>
AETVEFDGCKGDWYEWTCWW-NH2 (disulfide 9-18 (inferred)) [PepSP1164]

>  <Kd>
125 nM

$$$$
>  <binder>
AETVEFWTCHGNADEWTCSW-NH2 (disulfide 9-18 (inferred)) [PepSP1162]

>  <Kd>
159 nM

$$$$
>  <binder>
AETVEFYGCETYSGGWTCLW-NH2 (disulfide 9-18 (inferred)) [PepSP1167]

>  <Kd>
399 nM

$$$$

Which Kd value is on record for AETVEFDYCYGDVEEWTCVY-NH2 (disulfide 9-18 (inferred)) [PepSP1166] ?
145 nM

Which Kd is reported for this binder? AETVEFWTCYWTEGVSGCRW-NH2 (disulfide 9-18 (inferred)) [PepSP1151]
125 nM

Quick one: Kd of AETVEFYGCTGDAYEYTCTW-NH2 (disulfide 9-18 (inferred)) [PepSP1147] ?
59 nM
